Measured values drawn from paper PMC9860787 for this set.

Assay: Antioxidant DPPH assay
Conditions: DPPH, 50 µM
Description: The assay was performed by previously mentioned protocol. […] The volume of solution was adjusted to 200 μL using methanol. The 96-well plate was incubated at 37 °C for 25 min on shaking water bath with moderate shaking. The absorbance of reaction mixture was measured at 520 nm wavelength. The reducing percentage (RP) of the DPPH was determined by the equation: RP=100 (A0−Ac)/A0 where A0 was the control or untreated DPPH absorbance, and Ac was the test treated DPPH absorbance. […]
So I've got a bunch of compounds here, and I need their % Free Radicle Scavenging, Mean ± SE values.
Number only, in %; omit the unit.

**Q:** Recorded % Free Radicle Scavenging, Mean ± SE of COc1cccc(C=NNC(=O)CC2=C(C)C(=Cc3ccc([S+](C)[O-])cc3)c3ccc(F)cc32)c1 (stereo in doubt) , please.
**A:** 14.00

**Q:** Please look up its % Free Radicle Scavenging, Mean ± SE: CC1=C(CC(=O)NN=Cc2cccc(O)c2O)c2cc(F)ccc2/C1=C\c1ccc([S+](C)[O-])cc1 (stereo not shown)
**A:** 30.43

**Q:** Could you share which % Free Radicle Scavenging, Mean ± SE value was measured for CC1=C(CC(=O)NN=Cc2cccc(O)c2)c2cc(F)ccc2C1=Cc1ccc([S+](C)[O-])cc1 (stereo in doubt) ?
**A:** 17.68

**Q:** So what does the record say about % Free Radicle Scavenging, Mean ± SE for CC1=C(CC(=O)NN=Cc2c(O)cccc2O)c2cc(F)ccc2/C1=C\c1ccc([S+](C)[O-])cc1 (stereo not shown) ?
**A:** 28.67

----------
Molecular target: hAChE (Homo sapiens, UniProt P22303)
Construct: ATCh (derived from human erythrocytes); from tissue; host or cells: human erythrocytes
Sequence (P22303 other isoform, or with tags, fused parts or gaps): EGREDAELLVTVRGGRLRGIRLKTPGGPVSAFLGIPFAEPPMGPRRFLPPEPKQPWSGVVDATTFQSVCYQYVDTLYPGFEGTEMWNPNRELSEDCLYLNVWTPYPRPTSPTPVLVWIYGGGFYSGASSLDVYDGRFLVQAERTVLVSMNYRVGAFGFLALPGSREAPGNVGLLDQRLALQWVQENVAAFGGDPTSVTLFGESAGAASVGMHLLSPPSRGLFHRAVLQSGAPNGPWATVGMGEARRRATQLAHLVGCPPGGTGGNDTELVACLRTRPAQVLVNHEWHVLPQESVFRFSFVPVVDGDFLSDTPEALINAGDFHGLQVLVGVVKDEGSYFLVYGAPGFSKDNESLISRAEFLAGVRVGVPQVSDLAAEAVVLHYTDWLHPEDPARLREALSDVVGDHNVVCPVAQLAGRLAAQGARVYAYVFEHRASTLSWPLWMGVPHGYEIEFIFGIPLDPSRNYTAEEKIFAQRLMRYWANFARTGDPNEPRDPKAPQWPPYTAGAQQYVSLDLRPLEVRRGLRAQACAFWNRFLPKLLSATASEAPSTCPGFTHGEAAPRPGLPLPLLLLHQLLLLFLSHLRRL
Assay: biochemical
Settings: BuChE over AChE
MEASURED METRIC: Selectivity Ratio = (IC50 of BuChE)/(IC50 of AChE)
Write no unit; give the number alone.

**Q:** Request the reported Selectivity Ratio = (IC50 of BuChE)/(IC50 of AChE) associated with CC1=C(CC(=O)NN=Cc2cccc(O)c2O)c2cc(F)ccc2/C1=C\c1ccc([S+](C)[O-])cc1 (stereo not shown)
**A:** 2.86

**Q:** So what's the measured Selectivity Ratio = (IC50 of BuChE)/(IC50 of AChE) for this one? CC1=C(CC(=O)NN=Cc2c(O)cccc2O)c2cc(F)ccc2/C1=C\c1ccc([S+](C)[O-])cc1 (stereo not shown)
**A:** 2.63

**Q:** Field request: Selectivity Ratio = (IC50 of BuChE)/(IC50 of AChE) | item: CC1=C(CC(=O)NN=Cc2cccc(O)c2)c2cc(F)ccc2C1=Cc1ccc([S+](C)[O-])cc1 (stereo in doubt)
**A:** 2.30

**Q:** Form field: reported Selectivity Ratio = (IC50 of BuChE)/(IC50 of AChE) of CC1=C(CC(=O)NN=Cc2ccc(O)cc2)c2cc(F)ccc2C1=Cc1ccc([S+](C)[O-])cc1 (stereo in doubt)
**A:** 3.50

----------
Assay: Antioxidant DPPH assay
Conditions: DPPH, 100 µM
MEASURED METRIC: % Free Radicle Scavenging, Mean ± SE (%)
Entry rule: numbers only, all in %.

**Q:** Please look up its % Free Radicle Scavenging, Mean ± SE: COc1cccc(C=NNC(=O)CC2=C(C)C(=Cc3ccc([S+](C)[O-])cc3)c3ccc(F)cc32)c1 (stereo in doubt)
**A:** 40.95

**Q:** Consider the molecule shown here: CC1=C(CC(=O)NN=Cc2c(O)cccc2O)c2cc(F)ccc2/C1=C\c1ccc([S+](C)[O-])cc1 (stereo not shown) What is its recorded % Free Radicle Scavenging, Mean ± SE?
**A:** 63.42

**Q:** Name the recorded % Free Radicle Scavenging, Mean ± SE for COc1ccccc1C=NNC(=O)CC1=C(C)C(=Cc2ccc([S+](C)[O-])cc2)c2ccc(F)cc21 (stereo in doubt) .
**A:** 39.39

**Q:** What value of % Free Radicle Scavenging, Mean ± SE has been reported for the following molecule? CC1=C(CC(=O)NN=Cc2cccc(O)c2O)c2cc(F)ccc2/C1=C\c1ccc([S+](C)[O-])cc1 (stereo not shown)
**A:** 64.98

**Q:** Which % Free Radicle Scavenging, Mean ± SE is listed for O=C1O[C@H]([C@@H](O)CO)C(O)=C1O [Ascorbic acid, reference compound] ?
**A:** 76.76

**Q:** Which % Free Radicle Scavenging, Mean ± SE value belongs to CC1=C(CC(=O)NN=Cc2ccc(O)cc2)c2cc(F)ccc2C1=Cc1ccc([S+](C)[O-])cc1 (stereo in doubt) ?
**A:** 45.39

**Q:** Can you share its % Free Radicle Scavenging, Mean ± SE? I mean this molecule: CC1=C(CC(=O)NN=Cc2cccc(O)c2)c2cc(F)ccc2C1=Cc1ccc([S+](C)[O-])cc1 (stereo in doubt)
**A:** 43.61
